Experiment: Aqueous solubility by nephelometry
Assay type: physicochemical
Details: buffer, pH 7.4, aqueous buffer, kinetic from dmso stock, nephelometry, read-out: aqueous solubility
OBSERVED_PROPERTY: solubility

Exercise: Endpoint output: solubility of Cn1nc(C(F)(F)F)cc1C(=O)Nc1ccc(S(=O)(=O)N2CCCCC2CCN2CCOCC2)cc1 (single isomer, unassigned) . Value?
Key: ~60 µg/mL

###

Experiment: Pharmacokinetic study in rat, plasma concentration after dosing
Assay type: in vivo, Sprague-Dawley rat
Settings: Sprague-Dawley, plasma, oral, 2 mg/kg i.v. and 10 mg/kg p.o., read-out: oral bioavailability (F)
OBSERVED_PROPERTY: bioavailability (%)
// units = %; emit number, no label

Exercise: Endpoint output: bioavailability of Cn1nc(C(F)(F)F)cc1C(=O)Nc1ccc(S(=O)(=O)N2CCCCC2CCN2CCOCC2)cc1 (single isomer, unassigned) . Value?
Key: 39

###

Experiment: MTT cytotoxicity
Assay type: cell-based
Conditions: African green monkey, Vero cells; averages of at least three experiments; highest concentration assessed 75 μM
OBSERVED_PROPERTY: CC50

Exercise: Endpoint output: CC50 of Cn1nc(C(F)(F)F)cc1C(=O)Nc1ccc(S(=O)(=O)c2ccccc2O)cc1 . Value?
Key: ≥ 75 µM

Exercise: Okay, and Cn1nc(C(F)(F)F)cc1C(=O)Nc1ccc(S(=O)(=O)N2CCCCC2CCN2CCOCC2)cc1 (single isomer, unassigned) ?
Key: > 75 µM

###

Test: Pharmacokinetic study in rat, plasma concentration after dosing
Format: in vivo, Sprague-Dawley rat
Details: Sprague-Dawley, plasma, oral 50 mg/kg, suspension in PEG200/0.5% methylcellulose (10/90), read-out: Cmax
OBSERVED_PROPERTY: Cmax

Exercise: Endpoint output: Cmax of Cn1nc(C(F)(F)F)cc1C(=O)Nc1ccc(S(=O)(=O)N2CCCCC2CCN2CCOCC2)cc1 (single isomer, unassigned) . Value?
Key: 823 ng/mL

###

Assay: Pharmacokinetic study in rat, plasma concentration after dosing
Assay type: in vivo, Sprague-Dawley rat
Settings: Sprague-Dawley, plasma, oral 10 mg/kg, suspension in PEG200/0.5% methylcellulose (10/90), read-out: AUC (0-t)
OBSERVED_PROPERTY: AUC (0-t)

Exercise: Endpoint output: AUC (0-t) of Cn1nc(C(F)(F)F)cc1C(=O)Nc1ccc(S(=O)(=O)N2CCCCC2CCN2CCOCC2)cc1 (single isomer, unassigned) [Compound 2o] . Value?
Key: 683 ng·h/mL

###

Experiment: Pharmacokinetic study in rat, plasma concentration after dosing
Type: in vivo, Sprague-Dawley rat
Details: Sprague-Dawley, plasma, oral 10 mg/kg, suspension in PEG200/0.5% methylcellulose (10/90), read-out: Cmax
OBSERVED_PROPERTY: Cmax (ng/mL)
// units = ng/mL; emit number, no label

Exercise: Endpoint output: Cmax of Cn1nc(C(F)(F)F)cc1C(=O)Nc1ccc(S(=O)(=O)N2CCCCC2CCN2CCOCC2)cc1 (single isomer, unassigned) . Value?
Key: 195

###

Assay: Pharmacokinetic study in rat, plasma concentration after dosing
Assay type: in vivo, Sprague-Dawley rat
Conditions: Sprague-Dawley, plasma, oral 50 mg/kg, suspension in PEG200/0.5% methylcellulose (10/90)
OBSERVED_PROPERTY: AUC(0-inf) (ng·h/mL)
// units = ng·h/mL; emit number, no label

Exercise: Endpoint output: AUC(0-inf) of Cn1nc(C(F)(F)F)cc1C(=O)Nc1ccc(S(=O)(=O)N2CCCCC2CCN2CCOCC2)cc1 (single isomer, unassigned) . Value?
Key: 7860

###

Kindly state EC50 for each of the entries shown.
Tested on: MV-Alaska
Test: Viral CPE-reduction assay (MeV-Alaska in Vero-SLAM cells, crystal violet)
Format: cell-based, Measles virus (MeV)
Conditions: Table 1, piperidine series; read-out: EC50 (μM) (MV-Alaska) (CPE inhib.)
Answer with the value and then the unit.

Exercise: Find the measured EC50: item Cn1nc(C(F)(F)F)cc1C(=O)Nc1ccc(S(=O)(=O)N2CCCCC2CCO)cc1 (centres unmarked) [Compound 2l] , target or system MV-Alaska.
Key: 8.3 µM

Exercise: Okay, and Cn1nc(C(F)(F)F)cc1C(=O)Nc1ccc(S(=O)(=O)N2CCCCC2CCO)cc1 (centres unmarked) [Compound 2m] ?
Key: 3.1 µM

###

Assay: Pharmacokinetic study in rat, plasma concentration after dosing
Type: in vivo, Sprague-Dawley rat
Details: Sprague-Dawley, plasma, oral 50 mg/kg, suspension in PEG200/0.5% methylcellulose (10/90), read-out: T½ (converted)
OBSERVED_PROPERTY: half-life (h)
// units = h; emit number, no label

Exercise: Endpoint output: half-life of Cn1nc(C(F)(F)F)cc1C(=O)Nc1ccc(S(=O)(=O)N2CCCCC2CCN2CCOCC2)cc1 (single isomer, unassigned) [Compound 2o] . Value?
Key: 6.5

###

Assay: Aqueous solubility by nephelometry
Type: physicochemical
Settings: buffer, pH 7.4, aqueous buffer, kinetic from dmso stock, Nephelometer, read-out: Aqueous solubility (μg/ml) Test
OBSERVED_PROPERTY: solubility (µg/mL)
// units = µg/mL; emit number, no label

Exercise: Endpoint output: solubility of Cn1nc(C(F)(F)F)cc1C(=O)Nc1ccc(S(=O)(=O)N2CCCCC2CCN2CCOCC2)cc1 (single isomer, unassigned) . Value?
Key: 60

###

Test: Aqueous solubility by nephelometry
Type: physicochemical
Conditions: Nephelometer, buffer pH=7.4
OBSERVED_PROPERTY: Aqueous solubility (μg/ml) Test
Answer with the value and then the unit.

Exercise: Endpoint output: Aqueous solubility (μg/ml) Test of Cn1nc(C(F)(F)F)cc1C(=O)Nc1ccc(S(=O)(=O)N2CCCCC2CCN2CCOCC2)cc1 (stereo not drawn) . Value?
Key: 55 µg/mL

Exercise: Okay, and Cn1nc(C(F)(F)F)cc1C(=O)Nc1ccc(S(=O)(=O)c2ccccc2)cc1 ?
Key: 22 µg/mL

Exercise: Okay, and Cn1nc(C(F)(F)F)cc1C(=O)Nc1ccc(S(=O)(=O)N2CCCCC2CO)cc1 (stereo not drawn) ?
Key: 61 µg/mL

Exercise: Okay, and Cn1nc(C(F)(F)F)cc1C(=O)Nc1ccc(S(=O)(=O)N2CCCCC2CCO)cc1 (stereo not drawn) ?
Key: 62 µg/mL

Exercise: Okay, and Cn1nc(C(F)(F)F)cc1C(=O)Nc1ccc(S(=O)(=O)c2ccccc2CO)cc1 ?
Key: 46 µg/mL

Exercise: Okay, and Cn1nc(C(F)(F)F)cc1C(=O)Nc1ccc(S(=O)(=O)c2ccccc2O)cc1 ?
Key: 67 µg/mL
